- study_system: HLA-A*02:01 (Homo sapiens, UniProt P04439, D140Y/D185E/D98H/E176V/E277Q/G131W/G231S/I119V/I121R/I166T/I218V/L300P/L318F/N151K/N90K/P208A/P217A/Q86G/Q94H/R138H/R169H/T345S)
- experiment_description: MHC binding assay (UV-ligand exchange, β2m ELISA, peptide exchange yield)
- condition_details: binding to HLA-A*02:01
endpoint_label: Peptide Exchange (MHC class I binding score, peptide exchange yield)

Please review the entries below; each comes with its answer.
| substance | result |
| --- | --- |
| 172 (TLYDMLASI; listed as Homo sapiens) [compound 172] | “+++” (>50 = +++) |
| 265 (TLLADDLEIKL; listed as Homo sapiens) [compound 265] | “+++” (>50 = +++) |
| 371 (SLADDSVLERL; listed as Homo sapiens) [compound 371] | “+++” (>50 = +++) |
| 335 (YLYQEQYFI; listed as Homo sapiens) [compound 335] | “+++” (>50 = +++) |
| 140 (QIAELPATSV; listed as Homo sapiens) [compound 140] | “+++” (>50 = +++) |

Provide each entry's Peptide Exchange (MHC class I binding score, peptide exchange yield) from the list below.
1. 93 (ILFNTQINI; listed as Homo sapiens) [compound 93]
2. 15 (ALPEVSVEA; listed as Homo sapiens) [compound 15]
3. 28 (AVLHLLLSV; listed as Homo sapiens) [compound 28]
4. 356 (FLHDHQAEL; listed as Homo sapiens) [compound 356]

“+++” (>50 = +++)
“+++” (>50 = +++)
“++” (>20% = ++)
“++” (>20% = ++)
